The measurements presented in this section are drawn from paper PMC5540273.

Tested on: NIM1;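 note: KINOMEscan kinase panel screen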
Construct: gene MGC42105
Conditions: concentration: 1 μM, replicates: in singlicate; n = 1
RECORDED_ENDPOINT: %Inh (%)
Report as a plain number; the unit % is understood.

COMPOUND | U | %Inh
CN1C(=O)C(Nc2ccc(Cl)c(C(=O)O)c2)=C(c2ccc(Cl)cc2)C1=O | % | 9
CCn1c(-c2ccccn2)nc2cnccc21 | % | 34
O=C(Nc1ccc2c(c1)OCO2)NC1CCN(c2ccnc(Nc3ccc(F)cc3)n2)C1 (centres unmarked) | % | 46
Cc1c(O)cccc1Nc1ccnc2ccc(C(F)(F)F)cc12.Cl | % | 17

# lookup: %Inh of Cc1cc(N2Cc3ccccc3C2)nc(Nc2ccc(S(=O)(=O)N3CCOCC3)cc2)n1.Cl
6
